Recorded measurements of AC50, one per entry
target: Vasopressin V1a receptor (Homo sapiens, UniProt P37288); further: assay procedure not described here
Sequence (P37288 whole entry): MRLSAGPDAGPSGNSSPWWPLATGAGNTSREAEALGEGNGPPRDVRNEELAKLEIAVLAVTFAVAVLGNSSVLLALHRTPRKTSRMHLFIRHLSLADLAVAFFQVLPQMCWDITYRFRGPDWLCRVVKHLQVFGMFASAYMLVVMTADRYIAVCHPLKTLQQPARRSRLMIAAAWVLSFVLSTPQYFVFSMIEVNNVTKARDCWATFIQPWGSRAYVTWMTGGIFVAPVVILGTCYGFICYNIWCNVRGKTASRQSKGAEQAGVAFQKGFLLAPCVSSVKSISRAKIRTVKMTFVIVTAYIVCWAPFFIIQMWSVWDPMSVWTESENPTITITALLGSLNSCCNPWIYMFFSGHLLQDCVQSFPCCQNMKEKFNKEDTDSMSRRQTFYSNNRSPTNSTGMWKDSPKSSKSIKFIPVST

Looking for the measured AC50 of CCCC[C@H](C)C[C@H](O)/C=C/[C@H]1[C@H](O)CC(=O)[C@@H]1CCCC/C=C/C(=O)O , can you help?
> 30 µM

Follow-up entry: Cc1cc(CC(=O)O)n(C)c1C(=O)c1ccc(Cl)cc1 [ZOMEPIRAC]
> 30 µM

---

target: Voltage-gated inwardly rectifying potassium channel KCNH2 (Homo sapiens, UniProt Q12809); assay type: functional; conditions: read-out: AC50; further: assay procedure not described here
Sequence (Q12809 whole entry): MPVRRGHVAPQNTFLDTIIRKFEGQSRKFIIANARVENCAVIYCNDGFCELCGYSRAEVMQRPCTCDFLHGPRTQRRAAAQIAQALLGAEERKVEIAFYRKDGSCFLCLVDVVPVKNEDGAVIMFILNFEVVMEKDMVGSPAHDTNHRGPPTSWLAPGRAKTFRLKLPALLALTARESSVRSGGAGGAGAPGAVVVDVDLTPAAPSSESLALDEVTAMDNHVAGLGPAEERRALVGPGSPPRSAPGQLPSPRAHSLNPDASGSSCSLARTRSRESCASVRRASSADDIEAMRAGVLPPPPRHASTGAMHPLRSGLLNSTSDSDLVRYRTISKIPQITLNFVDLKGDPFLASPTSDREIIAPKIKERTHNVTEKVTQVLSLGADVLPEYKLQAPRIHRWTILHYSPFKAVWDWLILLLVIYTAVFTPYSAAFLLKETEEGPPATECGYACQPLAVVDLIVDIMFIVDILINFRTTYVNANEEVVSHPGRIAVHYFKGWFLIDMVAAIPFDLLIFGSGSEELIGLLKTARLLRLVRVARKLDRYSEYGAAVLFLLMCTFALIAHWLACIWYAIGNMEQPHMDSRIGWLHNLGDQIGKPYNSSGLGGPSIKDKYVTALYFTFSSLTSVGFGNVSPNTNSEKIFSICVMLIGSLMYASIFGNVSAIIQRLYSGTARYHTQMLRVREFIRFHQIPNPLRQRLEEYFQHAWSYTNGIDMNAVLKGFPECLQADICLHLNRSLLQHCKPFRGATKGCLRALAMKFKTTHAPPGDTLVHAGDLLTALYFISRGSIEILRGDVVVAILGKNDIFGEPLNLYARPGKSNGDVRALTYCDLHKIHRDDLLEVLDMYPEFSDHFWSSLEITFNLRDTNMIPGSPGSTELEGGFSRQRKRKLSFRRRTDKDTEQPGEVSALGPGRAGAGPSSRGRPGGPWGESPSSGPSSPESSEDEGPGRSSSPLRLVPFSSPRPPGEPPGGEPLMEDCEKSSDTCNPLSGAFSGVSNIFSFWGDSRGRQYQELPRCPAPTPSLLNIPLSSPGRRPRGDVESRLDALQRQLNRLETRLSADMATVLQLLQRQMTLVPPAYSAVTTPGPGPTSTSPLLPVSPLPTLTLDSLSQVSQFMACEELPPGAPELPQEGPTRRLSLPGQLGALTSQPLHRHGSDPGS
observable: AC50

Looking for the measured AC50 of C#Cc1cccc(Nc2ncnc3cc(OCCOC)c(OCCOC)cc23)c1 [ERLOTINIB] , can you help?
> 30 µM

Follow-up entry: CCCCC1(CC)C(=O)NC(=O)NC1=O [BUTETHAL]
> 30 µM

Follow-up entry: CCCN(CCc1cccs1)[C@H]1CCc2c(O)cccc2C1 [ROTIGOTINE]
3.8 µM

Follow-up entry: COc1ccnc(C[S+]([O-])c2nc3ccc(OC(F)F)cc3[nH]2)c1OC (stereo not given) [PANTOPRAZOLE]
> 30 µM

Follow-up entry: C[n+]1ccccc1/C=N/O [PRALIDOXIME]
> 30 µM

Follow-up entry: CC(/C=C1\SC(=S)N(CC(=O)O)C1=O)=C\c1ccccc1
> 30 µM

---

Recorded measurements of AC50, one per entry
target: Muscarinic acetylcholine receptor M2 (Homo sapiens); format: functional, cell-based; further: assay procedure not described here
Sequence (P08172 whole entry): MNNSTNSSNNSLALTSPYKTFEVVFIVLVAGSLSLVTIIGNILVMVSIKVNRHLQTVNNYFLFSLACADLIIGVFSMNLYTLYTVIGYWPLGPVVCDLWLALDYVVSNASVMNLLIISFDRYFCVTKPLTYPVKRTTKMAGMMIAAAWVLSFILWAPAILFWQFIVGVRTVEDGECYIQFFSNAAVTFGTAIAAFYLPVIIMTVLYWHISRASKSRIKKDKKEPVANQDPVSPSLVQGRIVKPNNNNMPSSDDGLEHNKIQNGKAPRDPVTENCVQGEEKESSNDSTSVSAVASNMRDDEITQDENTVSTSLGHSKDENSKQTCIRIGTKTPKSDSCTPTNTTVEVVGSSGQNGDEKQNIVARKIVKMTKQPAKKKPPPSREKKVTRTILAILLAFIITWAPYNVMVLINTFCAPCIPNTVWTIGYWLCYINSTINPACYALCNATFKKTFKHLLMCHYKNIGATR

{"compound": "CCC(=O)OCC(=O)[C@@]1(OC(=O)CC)[C@@H](C)C[C@H]2[C@@H]3CCC4=CC(=O)C=C[C@]4(C)[C@@]3(F)[C@@H](O)C[C@@]21C [BETAMETHASONE DIPROPIONATE]", "measurement_target": "Muscarinic acetylcholine receptor M2 (Homo sapiens)", "AC50": "> 30 µM"}
{"compound": "NC(=O)c1ncn([C@@H]2O[C@H](CO)[C@@H](O)[C@H]2O)n1", "measurement_target": "Muscarinic acetylcholine receptor M2 (Homo sapiens)", "AC50": "> 10 µM"}
{"compound": "N=C(N)NCCCCCCC(=O)NC(O)C(=O)NCCCCNCCCN (stereo not drawn)", "measurement_target": "Muscarinic acetylcholine receptor M2 (Homo sapiens)", "AC50": "> 30 µM"}
{"compound": "N=C(N)c1ccc2cc(OC(=O)c3ccc(N=C(N)N)cc3)ccc2c1", "measurement_target": "Muscarinic acetylcholine receptor M2 (Homo sapiens)", "AC50": "> 30 µM"}
{"compound": "CC(=O)c1ccc2c(c1)N(CCCN1CCC(CCO)CC1)c1ccccc1S2", "measurement_target": "Muscarinic acetylcholine receptor M2 (Homo sapiens)", "AC50": "> 30 µM"}

Looking for the measured AC50 of COc1cc2c(Nc3ccc(Br)cc3F)ncnc2cc1OCC1CCN(C)CC1 , can you help?
> 30 µM

Follow-up entry: CN1[C@@H]2CC[C@H]1C[C@@H](OC(=O)c1c[nH]c3ccccc13)C2
> 30 µM

Follow-up entry: O=C1CN2Cc3c(ccc(Cl)c3Cl)N=C2N1 [ANAGRELIDE]
> 10 µM

---

biological target: Mu-type opioid receptor (Homo sapiens, UniProt P35372); further: assay procedure not described here
Sequence (P35372 whole entry): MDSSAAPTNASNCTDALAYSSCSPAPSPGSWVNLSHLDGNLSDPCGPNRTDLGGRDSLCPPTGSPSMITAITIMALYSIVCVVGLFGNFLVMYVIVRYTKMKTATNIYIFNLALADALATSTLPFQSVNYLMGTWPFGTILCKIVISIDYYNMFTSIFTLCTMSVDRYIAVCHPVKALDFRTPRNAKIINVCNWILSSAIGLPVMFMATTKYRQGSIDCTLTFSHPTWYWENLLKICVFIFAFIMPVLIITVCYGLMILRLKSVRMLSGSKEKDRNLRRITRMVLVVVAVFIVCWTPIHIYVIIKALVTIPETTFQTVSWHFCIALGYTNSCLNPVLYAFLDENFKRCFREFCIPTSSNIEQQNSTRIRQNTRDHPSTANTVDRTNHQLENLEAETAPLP
observable: AC50

Known results for compounds:
{"compound": "CCC[C@@H]1C[C@@H](C(=O)N[C@@H]([C@H]2O[C@H](SC)[C@H](OP(=O)(O)O)[C@@H](O)[C@H]2O)[C@H](C)Cl)N(C)C1 [CLINDAMYCIN PHOSPHATE]", "AC50": "> 30 µM"}
{"compound": "CCCCCCCCCCCCCCCCCC(=O)NCCCC[C@H](NC(=O)CC[C@@H](NC(=O)[C@H](C)NC(=O)[C@@H](C)O[C@H]1[C@H](O)[C@@H](CO)OC(O)[C@@H]1NC(C)=O)C(N)=O)C(=O)O (stereo partly drawn) [ROMURTIDE]", "AC50": "> 30 µM"}

Looking for the measured AC50 of CN(C)c1cc(CNCC(C)(C)C)c(O)c2c1C[C@H]1C[C@H]3[C@H](N(C)C)C(O)=C(C(N)=O)C(=O)[C@@]3(O)C(O)=C1C2=O [OMADACYCLINE] , can you help?
> 30 µM
